Taken from paper PMC9562916.

assay: Caco-2 transepithelial transport assay of digested red wine; format: in vitro ADME, human; details: human, Caco-2, Apparent Permeability Coefficients, Helanshan

| compound | Papp at 6 h [×10⁻⁶ cm/s] |
| --- | --- |
| O=C(O)c1cc(O)c(O)c(O)c1 [Gallic acid] | 30.9 |

---

tested on: Caco-2 cell monolayer; assay: Caco-2 transepithelial transport assay of digested red wine; type: in vitro ADME, human; settings: Cabernet red wine, digested sample, basolateral side of Caco-2 monolayer
Marks after values point to notes of the source that are not given here.
recorded.metric: PC Contents, Cabernet, Transmembrane

| compound | recorded.metric | reported.value |
| --- | --- | --- |
| OC[C@H]1O[C@@H](Oc2cc3c(O)cc(O)cc3[o+]c2-c2cc(O)c(O)c(O)c2)[C@H](O)[C@@H](O)[C@@H]1O [Delphinidin-3-glc, delphinidin-3-glucoside] | PC Contents, Cabernet, Transmembrane | 0.59 ± 0.02 ^a mg/L |
| O=C(O)c1cc(O)c(O)c(O)c1 | PC Contents, Cabernet, Transmembrane | 4.61 ± 0.23 ^a mg/L |
| CCOC(=O)c1cc(O)c(O)c(O)c1 [Ethyl gallate] | PC Contents, Cabernet, Transmembrane | 10.70 ± 0.33 ^a mg/L |
| O=C(/C=C/c1ccc(O)c(O)c1)O[C@@H](C(=O)O)[C@@H](O)C(=O)O | PC Contents, Cabernet, Transmembrane | 0.43 ± 0.01 ^a mg/L |
| O=c1c(O[C@@H]2O[C@H](CO)[C@@H](O)[C@H](O)[C@H]2O)c(-c2ccc(O)c(O)c2)oc2cc(O)cc(O)c12 [Isoquercetin] | PC Contents, Cabernet, Transmembrane | 0.83 ± 0.04 ^a mg/L |
| COc1cc(-c2[o+]c3cc(O)cc(O)c3cc2O[C@@H]2O[C@H](CO)[C@@H](O)[C@H](O)[C@H]2O)cc(OC)c1O [Malvidin-3-glc, malvidin-3-glucoside] | PC Contents, Cabernet, Transmembrane | 62.38 ± 3.24 ^a mg/L |
| COc1cc(-c2[o+]c3cc(O)cc(O)c3cc2O[C@@H]2O[C@H](COC(C)=O)[C@@H](O)[C@H](O)[C@H]2O)cc(OC)c1O | PC Contents, Cabernet, Transmembrane | 8.02 ± 0.38 ^a mg/L |

---

Test: PC content of red wine before and after in vitro simulated gastrointestinal digestion (HPLC)
Type: in vitro ADME
Description: The digestion procedure was carried out by adapting the method of Brodkorb et al. and Gómez et al.. […] The Pati method was adopted, with slight modifications, to measure the content of the PCs. […] PCs were determined according to their retention times, UV/VIS spectra, and high-resolution MS spectra, in addition to a comparison with the standards. […] PCs All of the samples were determined in triplicate.
Marks after values point to notes of the source that are not given here.
Catalogue of PC Contents, Helanshan, After Digestion readings, one per entry.

| compound | PC Contents, Helanshan, After Digestion |
| --- | --- |
| O=C(/C=C/c1ccc(O)cc1)O[C@@H](C(=O)O)[C@@H](O)C(=O)O [Coutaric acid] | 2.97 ± 0.15 ^b mg/L |
| COc1cc(-c2oc3cc(O)cc(O)c3c(=O)c2O[C@@H]2O[C@H](CO)[C@@H](O)[C@H](O)[C@H]2O)cc(OC)c1O [Syringetin-3-glc] | 20.17 ± 1.01 ^b mg/L |
| COc1cc(/C=C/C(=O)OC(C(=O)O)C(O)C(=O)O)ccc1O (stereo not shown) [Fertaric acid] | 1.81 ± 0.10 ^c mg/L |
| COc1cc(-c2[o+]c3cc(O)cc(O)c3cc2O[C@@H]2O[C@H](CO)[C@@H](O)[C@H](O)[C@H]2O)cc(O)c1O [Petunidin-3-glc] | 4.98 ± 0.19 ^b mg/L |
| O.Oc1cc(O)c2c(c1)O[C@H](c1ccc(O)c(O)c1)[C@@H](O)C2 [Catechin] | 15.42 ± 0.83 ^b mg/L |
| COc1cc(-c2[o+]c3cc(O)cc(O)c3cc2OC2OC(COC(C)=O)C(O)C(O)C2O)cc(O)c1O (stereo not shown) [Petunidin-3-acglc] | 0.98 ± 0.05 ^b mg/L |
| COc1cc(-c2oc3cc(O)cc(O)c3c(=O)c2O[C@@H]2O[C@H](CO)[C@@H](O)[C@H](O)[C@H]2O)cc(O)c1O [Laricitrin-3-glc] | 18.76 ± 0.81 ^b mg/L |
